Recorded values, source ChEMBL document CHEMBL1155415.

# Tested on: Staphylococcus aureus
# assay: Antibacterial activity against Staphylococcus aureus ATCC 25923 after 18 to 24 hrs
# Assay type: functional
value_type: MBC (µg/mL)
Your answer should be a plain number; it is taken to be in µg/mL.

Worked examples follow.
1. CCCCC/C=C\CCC(O)CCCCCCCc1nnc(Nc2ccccc2)s1 (centres undefined): 12.5
2. O=C(N[C@H](CO)[C@H](O)c1ccc([N+](=O)[O-])cc1)C(Cl)Cl: 12.5
3. CCCCCC[C@@H](O)C/C=C\CCCCCCCc1nnc(Nc2ccccc2)o1: 12.5
4. C=CCCCCCCCCc1nnc(Nc2ccccc2)o1: 25
5. CCCCC/C=C\CC[C@H](O)CCCCCCCc1nnc(Nc2ccccc2)o1: 12.5
6. CCCCCCCC/C=C\CCCCCCCc1nnc(Nc2ccccc2)o1: 50

Inquiry: Could you tell me which MBC is on file for CCCCCCCC/C=C\CCCCCCCc1nnc(Nc2ccccc2)s1 ?
Reply text: 25

Inquiry: Could you tell me which MBC is on file for C=CCCCCCCCCc1nnc(Nc2ccccc2)s1 ?
Reply text: 25

Inquiry: Could you tell me which MBC is on file for CCCCCCC(O)C/C=C\CCCCCCCc1nnc(Nc2ccccc2)s1 (centres undefined) ?
Reply text: 12.5
